Data origin, for the record: patent US5939447A

assay: human radiolabel study of pranlukast (recovery in feces, metabolites in feces and plasma); assay type: in vivo; conditions: human; feces; after pranlukast; read-out: administered radiolabel recovered in feces as the named species
measured attribute: dose excreted

// query Using the record for O=C(Nc1cccc2c(=O)cc(-c3nnn[nH]3)oc12)c1ccc(OCCCCc2ccccc2)cc1 [pranlukast, reference compound] , report its dose excreted.
// result ~84%
